In this section, each of the binders is paired with its reported Effective SDA Concentration at A450 0.56.
Biological target: tetanus neurotoxin (TeNT), authentic tetanus holotoxin (Clostridium tetani, UniProt P04958 2-1315)
Sequence (P04958 2-457 limits assumed, chain 1 of 2): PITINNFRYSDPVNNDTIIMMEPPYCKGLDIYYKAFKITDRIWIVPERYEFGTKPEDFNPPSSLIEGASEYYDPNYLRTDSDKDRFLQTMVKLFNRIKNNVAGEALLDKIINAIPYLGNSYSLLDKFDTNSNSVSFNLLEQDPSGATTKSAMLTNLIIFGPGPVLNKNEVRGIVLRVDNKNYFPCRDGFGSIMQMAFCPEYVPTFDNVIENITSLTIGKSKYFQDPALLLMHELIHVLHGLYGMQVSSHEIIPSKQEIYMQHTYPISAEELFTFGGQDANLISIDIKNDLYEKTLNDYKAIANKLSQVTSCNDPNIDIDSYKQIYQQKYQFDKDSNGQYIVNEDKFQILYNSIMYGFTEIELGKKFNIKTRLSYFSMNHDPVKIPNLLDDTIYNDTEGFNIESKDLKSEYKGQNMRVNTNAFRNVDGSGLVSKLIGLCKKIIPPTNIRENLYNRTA
Sequence (P04958 458-1315 limits assumed, chain 2 of 2): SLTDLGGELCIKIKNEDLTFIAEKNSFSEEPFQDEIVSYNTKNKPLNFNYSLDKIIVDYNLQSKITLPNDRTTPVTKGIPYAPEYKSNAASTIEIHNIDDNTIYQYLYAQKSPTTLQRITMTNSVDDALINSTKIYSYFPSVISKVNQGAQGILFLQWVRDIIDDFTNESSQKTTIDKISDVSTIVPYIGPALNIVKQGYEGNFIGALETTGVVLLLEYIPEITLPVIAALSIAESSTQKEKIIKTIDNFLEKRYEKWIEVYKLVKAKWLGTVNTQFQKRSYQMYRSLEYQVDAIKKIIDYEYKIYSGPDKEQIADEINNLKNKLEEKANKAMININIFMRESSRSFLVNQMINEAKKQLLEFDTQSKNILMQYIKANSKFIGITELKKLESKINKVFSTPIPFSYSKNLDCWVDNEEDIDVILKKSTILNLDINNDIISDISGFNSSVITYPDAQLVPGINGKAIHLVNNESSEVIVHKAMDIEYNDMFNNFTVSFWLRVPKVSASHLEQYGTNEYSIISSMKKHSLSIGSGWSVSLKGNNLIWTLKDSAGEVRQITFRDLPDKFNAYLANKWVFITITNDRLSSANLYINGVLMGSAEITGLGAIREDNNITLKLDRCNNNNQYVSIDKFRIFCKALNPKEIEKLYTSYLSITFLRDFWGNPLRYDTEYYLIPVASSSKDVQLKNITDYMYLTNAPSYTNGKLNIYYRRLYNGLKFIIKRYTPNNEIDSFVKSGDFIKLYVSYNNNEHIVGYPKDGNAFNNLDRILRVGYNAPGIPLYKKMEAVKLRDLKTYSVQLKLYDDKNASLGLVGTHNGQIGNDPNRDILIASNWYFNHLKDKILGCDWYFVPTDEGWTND
Test: GT1b-TeNT inhibition ELISA

[
  {
    "binder": "SVT06-GS2-SVG13M4-H6 (bispecific antibody) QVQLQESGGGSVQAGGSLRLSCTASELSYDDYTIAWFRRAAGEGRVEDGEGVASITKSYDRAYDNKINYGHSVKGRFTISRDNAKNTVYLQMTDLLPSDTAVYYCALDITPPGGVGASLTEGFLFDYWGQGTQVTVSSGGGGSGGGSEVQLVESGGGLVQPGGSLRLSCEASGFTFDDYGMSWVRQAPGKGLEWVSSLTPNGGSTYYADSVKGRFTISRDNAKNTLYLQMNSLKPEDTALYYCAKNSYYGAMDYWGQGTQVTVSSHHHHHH",
    "unit-abbreviation": "ng/mL",
    "censoring-qualifier": "=",
    "Effective SDA Concentration at A450 0.56": 93
  },
  {
    "binder": "SVT06-GS2-SVA12M2-H6 (bispecific antibody) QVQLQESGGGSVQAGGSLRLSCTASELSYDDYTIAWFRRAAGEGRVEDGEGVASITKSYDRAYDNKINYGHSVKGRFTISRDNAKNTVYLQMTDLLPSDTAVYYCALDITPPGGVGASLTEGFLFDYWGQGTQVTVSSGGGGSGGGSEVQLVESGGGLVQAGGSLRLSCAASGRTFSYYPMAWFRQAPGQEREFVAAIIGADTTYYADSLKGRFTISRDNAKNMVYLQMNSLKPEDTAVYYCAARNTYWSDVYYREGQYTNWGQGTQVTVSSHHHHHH",
    "unit-abbreviation": "ng/mL",
    "censoring-qualifier": "=",
    "Effective SDA Concentration at A450 0.56": 55
  },
  {
    "binder": "SVT15L-3FW4M (VHH) VHH: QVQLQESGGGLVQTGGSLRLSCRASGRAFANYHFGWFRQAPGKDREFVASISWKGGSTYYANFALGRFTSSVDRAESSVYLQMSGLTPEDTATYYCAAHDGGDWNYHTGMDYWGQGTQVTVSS",
    "unit-abbreviation": "ng/mL",
    "censoring-qualifier": "=",
    "Effective SDA Concentration at A450 0.56": 31
  },
  {
    "binder": "SVT16L (VHH) VHH: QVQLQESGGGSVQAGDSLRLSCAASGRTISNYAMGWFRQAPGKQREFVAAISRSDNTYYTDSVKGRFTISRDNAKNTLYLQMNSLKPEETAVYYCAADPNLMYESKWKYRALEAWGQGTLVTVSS",
    "unit-abbreviation": "ng/mL",
    "censoring-qualifier": "=",
    "Effective SDA Concentration at A450 0.56": 21
  },
  {
    "binder": "SVG13L (VHH) VHH: QVQLQESGGGLVQPGGSLRLSCEASGFTFDDYGMSWVRQAPGKGLEWVSSLTPNGGSTYYADSVKGRFTISRDNAKNTLYLQMNSLKPEDTALYYCAKNSYYGAMDYWGKGTLVTVSS",
    "unit-abbreviation": "ng/mL",
    "censoring-qualifier": ">",
    "Effective SDA Concentration at A450 0.56": 1000
  },
  {
    "binder": "SVT15-3FW4M-GS2-SVA12M2-H6 (bispecific antibody) QVQLQESGGGLVQTGGSLRLSCRASGRAFANYHFGWFRQAPGKDREFVASISWKGGSTYYANFALGRFTSSVDRAESSVYLQMSGLTPEDTATYYCAAHDGGDWNYHTGMDYWGQGTQVTVSSGGGGSGGGSEVQLVESGGGLVQAGGSLRLSCAASGRTFSYYPMAWFRQAPGQEREFVAAIIGADTTYYADSLKGRFTISRDNAKNMVYLQMNSLKPEDTAVYYCAARNTYWSDVYYREGQYTNWGQGTQVTVSSHHHHHH",
    "unit-abbreviation": "ng/mL",
    "censoring-qualifier": "=",
    "Effective SDA Concentration at A450 0.56": 78
  },
  {
    "binder": "SVG06L (VHH) VHH: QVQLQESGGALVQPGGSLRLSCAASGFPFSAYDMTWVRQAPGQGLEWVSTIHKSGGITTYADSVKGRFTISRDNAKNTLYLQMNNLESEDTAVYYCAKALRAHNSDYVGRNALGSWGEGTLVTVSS",
    "unit-abbreviation": "ng/mL",
    "censoring-qualifier": ">",
    "Effective SDA Concentration at A450 0.56": 1000
  },
  {
    "binder": "SVT06L (VHH) VHH: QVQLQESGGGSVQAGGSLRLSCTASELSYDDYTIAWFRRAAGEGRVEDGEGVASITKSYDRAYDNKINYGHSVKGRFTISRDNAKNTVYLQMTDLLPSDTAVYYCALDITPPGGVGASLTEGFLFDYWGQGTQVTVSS",
    "unit-abbreviation": "ng/mL",
    "censoring-qualifier": "=",
    "Effective SDA Concentration at A450 0.56": 33
  },
  {
    "binder": "SVT15-3FW4M-GS2-SVG13M4-H6 (bispecific antibody) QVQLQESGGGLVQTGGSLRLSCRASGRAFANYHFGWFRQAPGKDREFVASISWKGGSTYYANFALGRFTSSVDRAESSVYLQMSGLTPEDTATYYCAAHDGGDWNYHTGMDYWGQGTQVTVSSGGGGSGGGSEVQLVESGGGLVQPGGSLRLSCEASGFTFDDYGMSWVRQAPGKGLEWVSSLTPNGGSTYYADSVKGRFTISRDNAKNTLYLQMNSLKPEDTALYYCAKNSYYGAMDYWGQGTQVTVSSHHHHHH",
    "unit-abbreviation": "ng/mL",
    "censoring-qualifier": "=",
    "Effective SDA Concentration at A450 0.56": 77
  },
  {
    "binder": "SVT02-GS2-SVG13M4-H6 (bispecific antibody) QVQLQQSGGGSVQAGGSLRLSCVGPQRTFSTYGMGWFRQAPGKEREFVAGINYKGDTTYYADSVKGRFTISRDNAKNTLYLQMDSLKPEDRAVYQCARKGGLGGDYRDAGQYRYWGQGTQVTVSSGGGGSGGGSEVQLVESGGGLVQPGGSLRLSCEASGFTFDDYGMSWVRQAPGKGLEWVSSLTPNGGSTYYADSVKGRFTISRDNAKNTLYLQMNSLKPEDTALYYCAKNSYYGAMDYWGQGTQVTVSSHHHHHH",
    "unit-abbreviation": "ng/mL",
    "censoring-qualifier": ">",
    "Effective SDA Concentration at A450 0.56": 1000
  },
  {
    "binder": "SVT15-3FW4M-GS2-SVG06M4-H6 (bispecific antibody) QVQLQESGGGLVQTGGSLRLSCRASGRAFANYHFGWFRQAPGKDREFVASISWKGGSTYYANFALGRFTSSVDRAESSVYLQMSGLTPEDTATYYCAAHDGGDWNYHTGMDYWGQGTQVTVSSGGGGSGGGSEVQLVESGGALVQPGGSLRLSCAASGFPFSAYDMTWVRQAPGQGLEWVSTIHKSGGITTYADSVKGRFTISRDNAKNTLYLQMNNLESEDTAVYYCAKALRAHNSDYVGRNALGSWGQGTQVTVSSHHHHHH",
    "unit-abbreviation": "ng/mL",
    "censoring-qualifier": "=",
    "Effective SDA Concentration at A450 0.56": 131
  }
]
